Below is a list of entries, each paired with its recorded IC50 value.
assayed-target: recombinant CaMKIIδ (Homo sapiens (Human), UniProt Q13557)
assay-summary: CaMKIIδ biochemical assay (HTRF)
condition-context: 10 pM CaMKIIδ, 110 nM calmodulin, 12 μM ATP, 1 hour; read-out: CAMKIID-HTRF-384V2 (IC50 - nM)
Give the number; nM is assumed, so skip it.

compound	result
CCN(CC)[C@@H](C)CNC(=O)c1cc(-c2cnn3ccc(-c4cccs4)nc23)nc(N2CC[C@H]2C(=O)NCCOC)c1 [Example 301]	0.48
CCNC(C)(C)CNC(=O)c1ccnc(-c2cnn3ccc(-c4ccccc4)nc23)c1 [Example 67]	102
CCNC(=O)Nc1cc(C(=O)NC[C@H](C)N(CC)CC)cc(-c2cnn3ccc(-c4cccs4)nc23)n1 [Example 185]	0.11
CCN(CC)[C@@H](C)CNC(=O)c1cc(NS(C)(=O)=O)nc(-c2cnn3ccc(-c4cccs4)nc23)c1 [Example 181]	0.64
CCN(CC)[C@@H](C)CNC(=O)c1cc(-c2cnn3ccc(-c4cccs4)nc23)nc(N2CC[C@H]2C(=O)Nc2nccs2)c1 [Example 291]	3.55
CCN[C@@H](C)CNC(=O)c1cc(-c2cnn3ccc(-c4ccccc4)nc23)nc(N2CC(OC)C2)c1 [Example 174]	35.2

Recorded result, CCN(CC)[C@@H](C)CNC(=O)c1cc(-c2cnn3ccc(-c4cccs4)nc23)nc(N2CC[C@@H]2C(=O)NC)c1 [Example 290] , IC50: 14.1

Data origin: patent US10100058B2
